Attribute: normalized growth
Experiment: chemical genetic growth profiling, strain panel (AID 1159580);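 also: tested at 20 µM; growth read once vehicle control cultures reached saturation at 30 °C; 1 = growth at the plate median or of vehicle wells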
Details: S. cerevisiae deletion strains, growth OD, locus YPR119W, strain clb2, stronger effect = lower value
Screen size: about 5,500 compounds; about 2,000 (36%) were called active. About 18% were inconclusive and are not listed. The list shows a part of the results.
Hey, just send me the number, nothing else.

For orientation, consider the following solved cases.
# molecule, measure, readoutValue
measured = [
    ("CC(=O)c1c(O)c(C)c(O)c2c1oc1c(C(C)=O)c(O)c(C)c(O)c12", "normalized growth", 0.971),
    ("Cc1cccc(C)c1OCC(C)N (stereo not given)", "normalized growth", 0.993),
    ("Cc1c(O)c(C(=O)CC(C)C)c2oc3c(C(=O)CC(C)C)c(O)c(C)c(O)c3c2c1O", "normalized growth", 0.989),
    ("CC1=C(/C=C/C(C)=C/C=C/C(C)=C/C=C/C=C(C)/C=C/C=C(C)/C=C/C23OC2(C)CC(O)CC3(C)C)C(C)(C)CC(O)C1 (stereo not given)", "normalized growth", 0.994),
]

Suppose we examine the molecule OCCN1C[C@@H](O)[C@@H](O)C(O)C1CO (stereo not given in full) ; what normalized growth value has been reported? 0.996

* * *

Test: chemical genetic growth profiling, strain panel (AID 1159580)
Details: S. cerevisiae deletion strains, growth OD, locus YLR342W, strain FKS1 (second series)
Screen size: about 5,500 compounds; about 2,000 (36%) were called active. Another 18% or so got no clear call; they are omitted. No stated cut-off is given here; in the data, active means normalized growth mostly below about 0.91 (no sharp cut-off); inconclusive means no clear call, values can overlap the other calls; inactive means mostly above about 0.92. The list shows a part of the results.
Use one of these outcomes when replying: T = active, F = inactive

# molecule, classification
records = [
    ("COc1cc2c(cc1OC)[C@@H]1C(=O)c3ccc(O)c(CC=C(C)C)c3O[C@@H]1CO2", "F"),
    ("COC1=C(OC)C(=O)C(C/C=C(\\C)CC/C=C(\\C)CC/C=C(\\C)CC/C=C(/C)CC/C=C(\\C)CC/C=C(\\C)CC/C=C(\\C)CC/C=C(\\C)CC/C=C(\\C)CCC=C(C)C)=C(C)C1=O", "F"),
    ("CN(C)CC/C=C1\\c2ccccc2Sc2ccc(Cl)cc21", "T"),
    ("COc1cc2c(cc1OC)[C@@H]1C(=O)c3ccc4c(c3O[C@@H]1CO2)C=CC(C)(C)O4", "F"),
    ("Cc1cccc(C)c1OCC(C)N (stereo unspecified)", "F"),
    ("CC(=O)c1c(O)c(C)c(O)c2c1oc1c(C(C)=O)c(O)c(C)c(O)c12", "F"),
]

Let's switch to this molecule now.
Assay outcome for C=C1C2CC[C@H]3[C@]4(C)C[C@H](OC5OC(CO)C(OS(=O)(=O)O)C(OS(=O)(=O)O)C5OC(=O)CC(C)C)C[C@@H](C(=O)O)[C@H]4CC[C@]3(C2)[C@H]1O (stereo partly specified) : what was it? F

* * *

Assay: chemical genetic growth profiling, strain panel (AID 1159580)
Conditions: S. cerevisiae deletion strains, growth OD, locus YLR039C, strain RIC1
Among all 5,500 compounds or so, about 2,000 (36%) were called active. Not shown: some 18% with an inconclusive outcome. Rule as the data show it: active = normalized growth mostly below about 0.91 (no sharp cut-off); inconclusive = no clear call, values can overlap the other calls; inactive = mostly above about 0.92. The list shows a part of the results.
Use one of these outcomes when replying: 1 = active, 0 = inactive

See these solved cases before continuing.
# compound, classification
data = [
    ("CC(=O)OC(C)(C)[C@@H]1Cc2cc3ccc(=O)oc3cc2O1", 0),
    ("COc1cc2c(cc1OC)Cc1cc(OC)c(OC)cc1Cc1cc(OC)c(OC)cc1C2", 0),
    ("CC(C(=O)O)c1cccc(C(=O)c2ccccc2)c1 (centres undefined)", 0),
    ("COc1cc2c(cc1OC)CC(=O)OC2", 1),
    ("CCO/C=C1\\SC(=S)N(CCc2ccccc2)C1=O", 1),
    ("COc1ccc2c(C)cc(=O)oc2c1", 0),
]

Let's switch to this compound now.
Assay outcome for COc1ccc2cc([C@H](C)C(=O)O)ccc2c1 : what was it? 0

* * *

Attribute: normalized growth
Experiment: chemical genetic growth profiling, strain panel (AID 1159580);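 also: tested at 20 µM; growth read once vehicle control cultures reached saturation at 30 °C; 1 = growth at the plate median or of vehicle wells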
Conditions: S. cerevisiae deletion strains, growth OD, locus YCL069W, strain vba3, stronger effect = lower value
Among all 5,500 compounds or so, about 2,000 (36%) were called active. Roughly 18% stayed inconclusive and do not appear here. The list shows a part of the results.
Hey, just send me the number, nothing else.

For orientation, consider the following solved cases.
# smilesText, normalized growth
records = [
    ("CCOC(=O)CCC(=O)O[C@H]1[C@H](O[C@@H]2[C@@H](C)[C@H](O[C@H]3C[C@@](C)(OC)[C@@H](O)[C@H](C)O3)[C@@H](C)C(=O)O[C@H](CC)[C@@](C)(O)[C@H](O)[C@@H](C)C(=O)[C@H](C)C[C@@]2(C)O)O[C@H](C)C[C@@H]1N(C)C", 1),
    ("CCOC(=O)c1c(C)cc(O)c(C=O)c1O", 0.531),
    ("CCC(=O)O[C@H]1[C@H](O[C@@H]2[C@@H](C)[C@H](O[C@H]3C[C@@](C)(OC)[C@@H](O)[C@H](C)O3)[C@@H](C)C(=O)O[C@H](CC)[C@@](C)(O)[C@H](O)[C@@H](C)C(=O)[C@H](C)C[C@@]2(C)O)O[C@H](C)C[C@@H]1N(C)C", 0.899),
]

Suppose we examine the compound Cc1cc(O)c(C=O)c(O)c1C(=O)O ; what normalized growth value has been reported? 1

* * *

Test: chemical genetic growth profiling, strain panel (AID 1159580);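 also: tested at 20 µM; growth read once vehicle control cultures reached saturation at 30 °C; 1 = growth at the plate median or of vehicle wells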
Conditions: S. cerevisiae deletion strains, growth OD, locus YDL134C, strain PPH21
The campaign covered roughly 5,500 compounds. About 2,000 (36%) were called active. About 18% were inconclusive and are not listed. No stated cut-off is given here; in the data, active means normalized growth mostly below about 0.91 (no sharp cut-off); inconclusive means no clear call, values can overlap the other calls; inactive means mostly above about 0.92. Some of the results follow.
Use one of these outcomes when replying: active, inactive

See these solved cases before continuing.
# compound, classification
rows = [
    ("CC(C)(C)c1cc(-c2csc(-c3ccc(Cl)cc3)n2)cc(C(C)(C)C)c1O", "inactive"),
    ("CC(=O)[C@H]1CCC2C3CCC4=CC(=O)CC[C@]4(C)C3CC[C@@]21C (some centres not stated)", "inactive"),
    ("Cc1cccc(C)c1OCC(C)N (configuration not stated)", "inactive"),
    ("COC(=O)/C(=C/N(C)C)Sc1cc(C)c(Cl)cc1Cl", "inactive"),
    ("CCOc1ccc(/C=C(\\C#N)c2cccc(Cl)c2)cc1", "active"),
]

Assay outcome for CC(Oc1ccccc1)C(=O)N[C@@H]1C(=O)N2[C@@H]1SC(C)(C)[C@@H]2C(=O)O (some centres not stated) : what was it? inactive

* * *

Attribute: normalized growth
Assay: chemical genetic growth profiling, strain panel (AID 1159580);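 also: tested at 20 µM; growth read once vehicle control cultures reached saturation at 30 °C; 1 = growth at the plate median or of vehicle wells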
Conditions: S. cerevisiae deletion strains, growth OD, locus YDR388W, stronger effect = lower value
Hit rate of the full screen: of about 5,500 compounds, about 2,000 (36%) were called active. Roughly 18% stayed inconclusive and do not appear here. This is one part of the list.
Hey, just send me the number, nothing else.

For orientation, consider the following solved cases.
# compound, normalized growth
measured = [
    ("C[C@H]1CC2C([C@@H](O)C[C@@]3(C)C2CC[C@]3(O)C(=O)CO)[C@@]2(C)C=CC(=O)C=C12 (stereo partly drawn)", 1.02),
    ("CN1CCC(=C2c3ccccc3CC(=O)c3sccc32)CC1", 1.01),
    ("CCOC(=O)C(=O)C1(C(=O)OCC)Oc2cc(OC)cc(OC)c2C(=O)C1c1ccccc1 (stereo not drawn)", 0.968),
]

Suppose we examine the compound C[C@]12CC(=O)C3C(CC[C@@H]4C[C@H](O)CC[C@]34C)C1CC[C@]2(O)C(=O)CO (stereo partly drawn) ; what normalized growth value has been reported? 0.995

Suppose we examine the compound Cc1c(O)c(C(=O)CC(C)C)c2oc3c(C(=O)CC(C)C)c(O)c(C)c(O)c3c2c1O ; what normalized growth value has been reported? 0.985

Suppose we examine the compound CCOC(=O)c1c(C)cc(O)c(C)c1O ; what normalized growth value has been reported? 0.916

Suppose we examine the compound O=C(O)c1cc2ccccc2[nH]1 ; what normalized growth value has been reported? 1.01

Suppose we examine the compound CCOC(=O)c1c(C)cc(O)c(C=O)c1O ; what normalized growth value has been reported? 0.213

Suppose we examine the compound COc1ccc2cc([C@H](C)C(=O)O)ccc2c1 ; what normalized growth value has been reported? 0.998

Suppose we examine the compound CC(=O)OCC(=O)[C@H]1CCC2C3CCC4=CC(=O)CC[C@]4(C)C3CC[C@@]21C (stereo partly drawn) ; what normalized growth value has been reported? 0.94

Suppose we examine the compound CC(=O)N[C@@H](CC(C)C)C(=O)O ; what normalized growth value has been reported? 0.989

Suppose we examine the compound CC[C@H](/C=C/C(C)C1CCC2C3CCC4=CC(=O)CC[C@]4(C)C3CC[C@]12C)C(C)C (stereo partly drawn) ; what normalized growth value has been reported? 1.01

Suppose we examine the compound C[C@H]1OC(n2cc(F)c(=O)[nH]c2=O)C(O)[C@@H]1O (stereo partly drawn) ; what normalized growth value has been reported? 0.986

Suppose we examine the compound O=C(O)c1c2ccccc2cc2ccccc12 ; what normalized growth value has been reported? 0.98

Suppose we examine the compound CCCCNc1cc(C(=O)O)cc(S(N)(=O)=O)c1Oc1ccccc1 ; what normalized growth value has been reported? 0.975

Suppose we examine the compound COc1ccc2c(c1OC)C(=O)O[C@@H]2[C@H]1c2cc3c(cc2CCN1C)OCO3 ; what normalized growth value has been reported? 1.02

Suppose we examine the compound CC(C(=O)O)c1ccc(-c2ccccc2)c(F)c1 (stereo not drawn) ; what normalized growth value has been reported? 0.963

Suppose we examine the compound CCN(CC)CCCC(C)Nc1ccnc2cc(Cl)ccc12 (stereo not drawn) ; what normalized growth value has been reported? 1.01

Suppose we examine the compound COc1ccc2c(c1)OCc1c-2oc2cc(OC)ccc12 ; what normalized growth value has been reported? 1

Suppose we examine the compound CCN(CC)CCCC(C)Nc1c2ccc(Cl)cc2nc2ccc(OC)cc12 (stereo not drawn) ; what normalized growth value has been reported? 0.695
